# procedure-summary: Glutathione peroxidase-like catalytic anti-lipid peroxidation activity assessed as inhibition of AAPH-induced lipid peroxidation incubated for 3 hrs in presence of (+/-)-trans-5-Hydroxy-1,2-diselenan-4-yl dodecanoate using soybean lecithin/cholesterol-liposomes by TBARS assay
# Assay type: physicochemical
assay-metric: IC50

Exercise: Please report the recorded IC50 for CC1=NN(c2ccccc2)C(=O)C1 [EDARAVONE] .
Solution: 18.7 µM

====

# procedure-summary: Glutathione peroxidase-like catalytic anti-lipid peroxidation activity assessed as inhibition of AAPH-induced lipid peroxidation incubated for 3 hrs using soybean lecithin/cholesterol-liposomes by TBARS assay
# Assay type: physicochemical
assay-metric: pIC50
Give bare numbers, as −log10 of the molar value.

Here are 5 molecules together with their reported answers.
CC1=NN(c2ccccc2)C(=O)C1 [EDARAVONE]	4.53
O=c1c2ccccc2[se]n1-c1ccccc1 [EBSELEN]	4.09
CCCCCCCC(=O)O[C@@H]1C[Se][Se]C[C@H]1O (racemic)	4.52
CCCCCCCCCC(=O)O[C@@H]1C[Se][Se]C[C@H]1O (racemic)	4.88
CCCCCC(=O)O[C@@H]1C[Se][Se]C[C@H]1O (racemic)	4.37

Batch: pIC50 for all items listed.
1. O=C(O[C@@H]1C[Se][Se]C[C@H]1O)c1ccccc1 (racemic)
2. CCCCCCCCCCCCCC(=O)O[C@@H]1C[Se][Se]C[C@H]1O (racemic)
3. CCCCCCCCCCCC(=O)O[C@@H]1C[Se][Se]C[C@H]1O (racemic)
4. c1ccc([Se][Se]c2ccccc2)cc1

Solution:
[4.56, 4.78, 4.97, 4.15]

Batch: pIC50 for all items listed.
1. CCC(=O)O[C@@H]1C[Se][Se]C[C@H]1O (racemic)
2. O=C(O[C@@H]1C[Se][Se]C[C@H]1O)c1ccc2ccccc2c1 (racemic)

Solution:
[3.92, 4.81]
